Here, each record is paired with measured inhibition data.
# study target: Hexose transporter 1 (Plasmodium falciparum)
# assay protocol: ST_JUDE_LEISH: Cytotoxicity at 2uM final concentration against transgenic Leishmania Mexicana promastigotes LmPfHT that are glucose transport deficient and complemented with the Plasmodium falciparum hexose transporter. Activity is measured by DNA content using SYBR green in vitro
# Assay type: functional
measured attribute: inhibition (%)

CC(C)c1cn2c3c(cc(C(=O)N[C@@H](Cc4ccccc4)[C@H](O)CNC4CCCCC4)cc13)N(C)S(=O)(=O)CC2 : -0.34
N#Cc1ccc(-c2ccc(C(=O)NCCCCN3CCC(c4ccc5c(c4OCc4ccncc4)CCCC5)CC3)cc2)cc1 : 3.1
c1ccc2c(CNc3ccnc(NCc4cccc5ccccc45)n3)cccc2c1 : 5.69
CCCN(c1ccc(O)c(CN2CCCCC2)c1)c1ccc([N+](=O)[O-])cn1 : 0.61
CC(C)CCNC(=O)C1Cc2c([nH]c3cc(Br)ccc23)C2(CCN(CCc3ccccc3)CC2)N1 (stereo not drawn) : 2.47
COC(=O)c1cc2cccc(NC[C@@H](C)NC[C@H](O)c3cccc(Cl)c3)c2[nH]1 : 1.58
CCOc1cc[nH]c(=O)n1 : 2.36
O=C1CCCN1CCCNCc1ccc(-c2ccc(-c3nc4cc(F)ccc4[nH]3)s2)cc1 : 1.67
CC(CN(C)C)C(=O)Nc1cccc(-c2cccc(-c3nc4cc(F)ccc4[nH]3)c2)c1 (stereo not drawn) : -1.06
COc1ccc(NC(=O)[C@H](Cc2ccccc2)Nc2cc(C)nc(NCC3CCCCC3)n2)cc1 : 2.59
C=CCOc1ccc(-c2c(C)[nH]c(C)c(Br)c2=O)cc1 : 2.01
N#Cc1ccc(C(=O)Nc2cccc(-c3ccc(CN4CCCC4)cc3)c2)cc1 : 9.72
Cc1cc(NCCC(=O)NCc2cccc(F)c2)nc(NCCc2ccc(F)cc2)n1 : 3.24
